switch fluorescence ratio values for the sequences below.
System: ATP;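 further: ATP exposure 15 min at 22 °C before imaging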
assay_protocol: switch fluorescence ratio, 500 uM ATP over buffer (Cy3 cluster intensity, sum of 5 cycles each) (fold (ratio)); higher = stronger signal-on switching upon ATP binding; sequences stand for … in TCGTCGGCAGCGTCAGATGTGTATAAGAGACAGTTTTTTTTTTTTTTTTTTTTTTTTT…TC
condition_context: aptamer strand: ATP DNA aptamer (quencher-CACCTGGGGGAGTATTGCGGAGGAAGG + anchor), 100 nM annealed; ATP concentration: 500 uM

{"record_sequence": "GACCGTTTGA", "switch fluorescence ratio": 1.03}
{"record_sequence": "GTTAGGTACG", "switch fluorescence ratio": 1}
{"record_sequence": "GCTGAAAGGG", "switch fluorescence ratio": 0.99}
{"record_sequence": "TTGTTTGTTT", "switch fluorescence ratio": 0.997}
{"record_sequence": "AAAAATTCAG", "switch fluorescence ratio": 0.987}
{"record_sequence": "AATTTTATAC", "switch fluorescence ratio": 1.02}
{"record_sequence": "ATGCACGAAG", "switch fluorescence ratio": 1}
{"record_sequence": "GTCATAGTTA", "switch fluorescence ratio": 0.983}
{"record_sequence": "AAGTGAGGGG", "switch fluorescence ratio": 0.998}
{"record_sequence": "ATTATTGGCG", "switch fluorescence ratio": 1.01}

###

Tested on: ATP;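 further: ATP exposure 15 min at 22 °C before imaging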
assay_protocol: switch fluorescence ratio, 500 uM ATP over buffer (Cy3 cluster intensity, sum of 5 cycles each) (fold (ratio)); higher = stronger signal-on switching upon ATP binding; sequences stand for … in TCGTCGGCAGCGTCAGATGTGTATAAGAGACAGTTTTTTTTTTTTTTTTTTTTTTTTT…TC
condition_context: aptamer strand: ATP DNA aptamer (quencher-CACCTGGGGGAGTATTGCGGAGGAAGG + anchor), 100 nM annealed; ATP concentration: 500 uM
Answer class 0 if switch fluorescence ratio is under 1, and class 1 if it is 1 or more.

{"record_sequence": "GTTGTAGCCA", "system_name": "ATP", "label_class": "class 0"}
{"record_sequence": "TTGCGGGGTT", "system_name": "ATP", "label_class": "class 1"}
{"record_sequence": "CGAAGTAGAG", "system_name": "ATP", "label_class": "class 1"}
{"record_sequence": "GAAGGTTGAG", "system_name": "ATP", "label_class": "class 1"}
{"record_sequence": "CTGGGATTTT", "system_name": "ATP", "label_class": "class 0"}
{"record_sequence": "TACGGGGCCT", "system_name": "ATP", "label_class": "class 1"}

###

Tested on: ATP;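 further: ATP exposure 15 min at 22 °C before imaging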
assay_protocol: switch fluorescence ratio, 500 uM ATP over buffer (Cy3 cluster intensity, sum of 5 cycles each) (fold (ratio)); higher = stronger signal-on switching upon ATP binding; sequences stand for … in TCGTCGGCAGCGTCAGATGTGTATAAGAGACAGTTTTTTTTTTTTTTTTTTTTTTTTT…TC
condition_context: aptamer strand: ATP DNA aptamer (quencher-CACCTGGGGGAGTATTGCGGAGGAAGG + anchor), 100 nM annealed; ATP concentration: 500 uM
The following sequences are shown together with reported switch fluorescence ratio values.

{"record_sequence": "GACGTTTTTA", "switch fluorescence ratio": 1.01}
{"record_sequence": "GGATAAGGTT", "switch fluorescence ratio": 0.987}
{"record_sequence": "TAGGTGGTTG", "switch fluorescence ratio": 1}
{"record_sequence": "GGTTATTTGA", "switch fluorescence ratio": 0.974}
{"record_sequence": "CAAAGAGTGG", "switch fluorescence ratio": 1.01}
{"record_sequence": "CTGGGGGTAA", "switch fluorescence ratio": 0.992}
{"record_sequence": "TGGTTGTACG", "switch fluorescence ratio": 1.01}
{"record_sequence": "ATTGTCTTCG", "switch fluorescence ratio": 0.987}
{"record_sequence": "TTTTCATTGG", "switch fluorescence ratio": 0.985}
{"record_sequence": "CGTGATTTA", "switch fluorescence ratio": 0.961}
{"record_sequence": "CGAAGATTTT", "switch fluorescence ratio": 1.05}
{"record_sequence": "GGATGGTGTT", "switch fluorescence ratio": 0.958}
{"record_sequence": "TTTGTCCTTA", "switch fluorescence ratio": 0.993}
{"record_sequence": "AGGGTGGCGT", "switch fluorescence ratio": 0.946}
{"record_sequence": "TTTTAAAGTA", "switch fluorescence ratio": 1.01}
{"record_sequence": "GACAACGTA", "switch fluorescence ratio": 0.997}
{"record_sequence": "GGTTCGGGTG", "switch fluorescence ratio": 1.08}
{"record_sequence": "TTAGAGTGGT", "switch fluorescence ratio": 1.01}
{"record_sequence": "GTAAAGAGTT", "switch fluorescence ratio": 0.992}
{"record_sequence": "CGGATTTGGG", "switch fluorescence ratio": 0.957}
{"record_sequence": "GTGTTGGGGC", "switch fluorescence ratio": 0.985}
{"record_sequence": "TAATATATTT", "switch fluorescence ratio": 1.01}
{"record_sequence": "TATACGGGGC", "switch fluorescence ratio": 1.01}
{"record_sequence": "TGTTTGTATT", "switch fluorescence ratio": 0.955}
{"record_sequence": "TTGTTATGGC", "switch fluorescence ratio": 0.979}
{"record_sequence": "TCCATCAGTA", "switch fluorescence ratio": 0.985}
{"record_sequence": "TTTTAGGTGA", "switch fluorescence ratio": 1.07}
{"record_sequence": "ATGATTCGTG", "switch fluorescence ratio": 0.972}
{"record_sequence": "TCGTGGTGTT", "switch fluorescence ratio": 1.03}
{"record_sequence": "TTTGGGGACG", "switch fluorescence ratio": 1.01}
{"record_sequence": "TGGGTCAATA", "switch fluorescence ratio": 1.03}
{"record_sequence": "TAAGGGTTTT", "switch fluorescence ratio": 1}
{"record_sequence": "GTTGGGGAAG", "switch fluorescence ratio": 0.972}
{"record_sequence": "AGAATCAGGT", "switch fluorescence ratio": 0.97}
{"record_sequence": "GTGATATAGC", "switch fluorescence ratio": 0.981}
{"record_sequence": "AGGGTTACTG", "switch fluorescence ratio": 1.04}
{"record_sequence": "GGTTTATGGG", "switch fluorescence ratio": 0.975}
{"record_sequence": "GCGGTGAGGC", "switch fluorescence ratio": 0.971}
{"record_sequence": "GGTCGAAGGC", "switch fluorescence ratio": 0.986}
{"record_sequence": "TTCTATGGAA", "switch fluorescence ratio": 1.01}
{"record_sequence": "TCATTAAGAT", "switch fluorescence ratio": 0.994}
{"record_sequence": "GTTGGCTTTC", "switch fluorescence ratio": 1.02}
{"record_sequence": "TTGCGCCGC", "switch fluorescence ratio": 1.14}

###

System: ATP;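 further: ATP exposure 15 min at 22 °C before imaging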
assay_protocol: switch fluorescence ratio, 500 uM ATP over buffer (Cy3 cluster intensity, sum of 5 cycles each) (fold (ratio)); higher = stronger signal-on switching upon ATP binding; sequences stand for … in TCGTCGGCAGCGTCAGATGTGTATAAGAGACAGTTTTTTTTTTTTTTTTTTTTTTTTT…TC
condition_context: aptamer strand: ATP DNA aptamer (quencher-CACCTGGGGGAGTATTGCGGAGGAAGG + anchor), 100 nM annealed; ATP concentration: 500 uM
measurement_label: switch fluorescence ratio

{"record_sequence": "CGGGAGCG", "experimental_value": 1.03}
{"record_sequence": "GCGGCCTCTT", "experimental_value": 0.993}
{"record_sequence": "TCGTGAGTGG", "experimental_value": 0.975}
{"record_sequence": "ATAGTGGTGA", "experimental_value": 1.03}
{"record_sequence": "GTATTAATAT", "experimental_value": 1.01}
{"record_sequence": "CAGGAGGGCT", "experimental_value": 0.993}
{"record_sequence": "GTGTATACAT", "experimental_value": 0.977}
{"record_sequence": "TACCAATAAG", "experimental_value": 1.03}
{"record_sequence": "GATATATGGT", "experimental_value": 0.983}
{"record_sequence": "TATAGCAAGT", "experimental_value": 1.07}
{"record_sequence": "ATGGATAT", "experimental_value": 0.98}
{"record_sequence": "TGCGTTGGGG", "experimental_value": 0.981}
{"record_sequence": "TTGAGTGTGT", "experimental_value": 0.96}
{"record_sequence": "TGGGGGTTGA", "experimental_value": 1.01}
{"record_sequence": "GAAGGTGAGG", "experimental_value": 1.01}
{"record_sequence": "GATTTGAGCG", "experimental_value": 0.985}
{"record_sequence": "AGTGGCTTTT", "experimental_value": 1}
{"record_sequence": "TGAGCTATTG", "experimental_value": 0.997}
{"record_sequence": "TATAAGAAGC", "experimental_value": 0.993}
{"record_sequence": "AAACGATGTG", "experimental_value": 0.985}
{"record_sequence": "TTAAACGC", "experimental_value": 1.03}
{"record_sequence": "GGGGGACAGA", "experimental_value": 0.969}
{"record_sequence": "CACGGGATGC", "experimental_value": 1.58}
{"record_sequence": "CGGCATAGAT", "experimental_value": 1.04}
{"record_sequence": "GGTGCTGGCA", "experimental_value": 0.956}
{"record_sequence": "TTTTGGCGGC", "experimental_value": 0.95}
{"record_sequence": "GGAGTACGG", "experimental_value": 1.03}
{"record_sequence": "GGGGTTGCGA", "experimental_value": 0.996}
{"record_sequence": "ATTCGCCACT", "experimental_value": 1.01}
{"record_sequence": "GAAGTGTTGG", "experimental_value": 1}
{"record_sequence": "ATGGCCGGGA", "experimental_value": 0.999}
{"record_sequence": "GAATGCCGGG", "experimental_value": 1.03}
{"record_sequence": "TGGAAATTGG", "experimental_value": 1.01}
{"record_sequence": "TACAGCAGTA", "experimental_value": 1.1}
{"record_sequence": "TGTTTTTTGT", "experimental_value": 0.992}
{"record_sequence": "TTAGGGGAAA", "experimental_value": 1.03}
{"record_sequence": "TTATATGTAG", "experimental_value": 0.993}
{"record_sequence": "GTATTTATGA", "experimental_value": 0.974}
{"record_sequence": "TAAGGGGGCC", "experimental_value": 1.08}
{"record_sequence": "CATAGGGCAG", "experimental_value": 1.03}
{"record_sequence": "TCATGGAGGC", "experimental_value": 1.02}
{"record_sequence": "GGGTTTTGTA", "experimental_value": 0.974}
{"record_sequence": "TTTTTATTTC", "experimental_value": 1}
{"record_sequence": "AATAAAAAGT", "experimental_value": 0.982}
